- Tested on: Echinochloa crus-galli
- protocol.details: Test Example 3: herbicidal effect test by soil application in upland field
- Format: in vivo
- condition.details: 120 g per 10 ares, sprayed one day after sowing, 14 days after application
property: weed inhibition rate

Known results for molecules:
>>> df
                                   molecule              property  readout_value
0  CC(C)[C@@]12C[C@H](OCc3c(F)cccc3F)[C@@](C)(C[C@H]1Br)O2  weed inhibition rate          ≥ 80%
1  CC(C)[C@]12C[C@@H](OCc3ccccc3C#N)[C@](C)(C[C@@H]1I)O2  weed inhibition rate          ≥ 80%
2  CC(C)[C@]12C[C@@H](OCc3cccc(C(F)(F)F)c3)[C@](C)(C[C@@H]1Br)O2  weed inhibition rate          ≥ 80%
3  CC(C)[C@]12C[C@@H](OCc3ccccn3)[C@](C)(C[C@@H]1I)O2  weed inhibition rate          ≥ 80%
4  CC(C)[C@]12C[C@@H](OCc3ccccc3F)[C@](C)(C[C@@H]1OCc1ccccc1)O2  weed inhibition rate          ≥ 80%
5  CCOC(C)O[C@H]1C[C@]2(C)O[C@@]1(C(C)C)C[C@H]2OCc1ccccc1F (stereo partly shown)  weed inhibition rate          ≥ 80%
6  CC(=O)O[C@H]1C[C@]2(C)O[C@@]1(C(C)C)C[C@H]2OCc1ccccc1F (racemic)  weed inhibition rate          ≥ 80%
7  CC(C)[C@]12C[C@@H](OCc3ccccc3F)[C@](C)(C=C1OS(=O)(=O)C(F)(F)F)O2 (racemic)  weed inhibition rate          ≥ 80%

Batch lookup, weed inhibition rate per entry.
1. CC(C)[C@]12C[C@@H](OCc3ccccc3F)[C@](C)(C[C@@H]1Cl)O2
2. CC(C)[C@]12C[C@@H](OCc3ccccc3C(F)(F)F)[C@](C)(C[C@@H]1Br)O2

Reply |
≥ 80%
≥ 80%
